Assay: Acute toxicity in the mouse
Conditions: mouse, in vivo, po
Method: The acute toxicity of proanthocyanidine A2 was determined in the mouse and rat on administration by the oral and intreperitoneal routes.
metric-name: LD50

>>> endpoint_result("Oc1cc(O)c2c(c1)O[C@@]1(c3ccc(O)c(O)c3)Oc3cc(O)c4c(c3[C@@H]2[C@H]1O)O[C@H](c1ccc(O)c(O)c1)[C@H](O)C4 [Proanthocyanidine A2]")
"> 6000 mg/kg"

###

Test system: rat brain homogenate
Test: In vitro inhibition of lipid peroxidation (MDA formation) on rat brain homogenate
Format: biochemical
Conditions: in vitro, rat brain homogenate
Description: Proanthocyanidine A2 was assayed for anti-lipid peroxidation activity "in vitro" on rat brain homogenate according to the method of Saeed S. A. et al., Biochem. Soc. Trans 9, 442-443, 1981 and on rat hepatic microsomes according to the method of Jha H. C. et al., Biochem. Pharmacol. 34 , 1367-1369, 1985. […] This activity was confirmed on a rat brain "ex vivo" test.
pIC50: −log10 of the molar value.
metric-name: pIC50

>>> endpoint_result("Oc1cc(O)c2c(c1)O[C@@]1(c3ccc(O)c(O)c3)Oc3cc(O)c4c(c3[C@@H]2[C@H]1O)O[C@H](c1ccc(O)c(O)c1)[C@H](O)C4 [Proanthocyanidine A2]")
6.35
>>> endpoint_result("O=c1c(O)c(-c2ccc(O)c(O)c2)oc2cc(O)cc(O)c12 [Quercetin, reference compound]")
6.05
